target: T1, c-Met/Fc Chimera (R&D Systems, catalog # 358-MT-100) (human, UniProt P08581 25-932); assay: competition ELISA: displacement of biotinylated HGF from plate-coated c-Met/Fc chimera, IgG, n = 2
T1 construct: extracellular domain; Bought reagent; also called human c-Met-Fc fusion protein; recombinant c-Met protein; Fc part of the bought chimera not given
Documented IC50 across a set of binders
Just the number in nM, nothing appended.

Answered cases to consult:
| binder | result |
| --- | --- |
| c-Met IgG antibody 12123 (antibody, V domains shown, IgG of scFv PGIA-3-B2; The VL reverse cloning primer RH62 codes ...TVLG whereas the scFv entry ends ...TVLS; also called 12123 IgG; IgG of scFv PGIA-03-B2 (PGIA-3-B2)) VH: QVQLQESGPGLVKPSATLSLTCAVSGGSISSNHWWSWVRQSPGKGLEWIGEIYTYGGANYNPSLKSRVDISMDKSKNQFSLHLSSVTAADTAVYYCGRHLTGYDCFDIWGQGTLVTVSS VL: QAVLTQPSSVSGAPGQRVTISCTGSSSNIGAGYDVHWYQQLPGTAPKLLIYGNSNRPSGVPDRFSGSKSGTSASLAITGLQAEDEADYYCQSYDSSLSGVFGTGTQLTVLS | 0.5 |
| c-Met IgG antibody 12075 (antibody, V domains shown, IgG of scFv PGIA-3-A11; also called 12075 IgG; IgG of scFv PGIA-03-A11 (PGIA-3-A11)) VH: QVQLVQSGPEVKKPGASVEVSCKASGYTFTGDYMHWVRQAPGQGPEWMGWINPQTGVTKYAQKFQGRVTMARDTSINTAYMELRGLRSDDTAVYYCVREDHNYDLWSAYNGLDVWGQGTLVTVSS VL: QSVLTQPPSVSAAPGQKVTISCSGSSSNIGNNHVSWYQQLAGTAPKLLIFDNDKRPSGIPDRFSGSKSGTSATLGITGLQTGDEADYYCGTWDKSPTDIYVFGSGTKLTVLG | 2.55 |
| c-Met IgG antibody 11986 (antibody, V domains shown, IgG of scFv PGIA-3-B1; also called 11986 IgG; IgG of scFv PGIA-03-B1 (PGIA-3-B1)) VH: EVQLVQSGAEVKKPGATLKVSCKVSAYTFTDYSMHWVQQAPGKGLKWMGLIDLEDGNTIYAEEFQDRVTITADTSTDTAYMDLSSLRSEDTAVFYCAISPLRGLTADVFDVWGQGTLVTVSS VL: QSALTQPASASGSPGQSITISCTGTSSDIGRYDFVSWYQRQPGKAPKLMIYDVINRPSGVSSRFSGSKSGNTASLTISGLQAEDEADYYCSSYAGSTTLYVFGTGTKLTVLG | 0.52 |

// next item, IC50 requested
IN: Record request: IC50 value, item c-Met IgG antibody 12119 (antibody, V domains shown, IgG of scFv PGIA-5-A1; also called 12119 IgG; IgG of scFv PGIA-05-A1 (PGIA-5-A1)) VH: QLQLQESGPGLVKPSGTLSLTCAVSGGSISTSDWWSWVRRPPGKGLEWIGEIYHSGSTNYHPSLKSRVTISLDKSKNQFSLKLSSVTAADTAVYYCAREGGHSGSYPLDYWGRGTLVTVSS VL: NFMLTQPHSVSESPGKTVTISCARSSGSIASNYVQWYQQRPGSSPTTLIYEDRQRPSGVPDRFSGSIDSSSNSASLTISGLKTEDEADYYCQSYDSSDHVVFGGGTKLTVLG
OUT: 0.64

Just for reference, patent US20040166544A1 is where these values come from.
